A collection of binders and their measured mean fluorescence intensity
# TESTED_SYSTEM: T1, human CLDN18.1 (human, UniProt P56856 1-261)
# T1 construct: Full length, overexpressed on HEK293 cells; also called hCLDN18.1; human CLDN18.1-HEK293
# T1 sequence (P56856 whole entry): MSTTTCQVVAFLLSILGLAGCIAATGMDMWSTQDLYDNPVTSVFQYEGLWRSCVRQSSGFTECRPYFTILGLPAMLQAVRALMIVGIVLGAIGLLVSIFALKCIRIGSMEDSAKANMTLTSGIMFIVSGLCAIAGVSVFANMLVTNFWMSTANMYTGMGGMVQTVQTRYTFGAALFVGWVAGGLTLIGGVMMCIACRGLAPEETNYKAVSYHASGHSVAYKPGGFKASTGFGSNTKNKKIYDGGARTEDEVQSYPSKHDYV
# PROTOCOL_TEXT: flow cytometry, phage supernatant on hCLDN18.1-expressing HEK293 cells
Provide only the numeric value, understood in MFI.

These recorded examples may help you get a feel for the data.
>>> observed_result("A18-1-45 (VHH) VHH: EVQLQESGGGLVQPGGSLRLSCAASGIIFNIPVMSWYRQAPGKQRELVAGISTGGTTNYGDSVKGRFTISRDNAKNTVYLQMNSLKPEDTAVYYCNVLVVSGIGSHLEVWG")
4750
>>> observed_result("A18-1-50 (VHH) VHH: EVQVQESGGGLVQPGGSLRLSCAASGNIFRIDTMGWYRQAPGKQRELVAGISRGGTTTYAHSVKERFTISRDNAKNTMYLQMNSLKSEDTAGYYCNAQAWDPGTFRYLEVWGQGTLVTVSA")
6040
>>> observed_result("A293-55 (VHH) VHH: QVQLVESGGGSVQPGGSLRLSCAASGSIFHIVVMGWYRQAPGKQRELVAGMSTGGTTNYGDSVKGRFTISRDNAKNTVYLQMNSLKPEDTAVYYCNVLVISGIGSHLEVWG")
3340

Now turn to the next binder.
Query: Which value of mean fluorescence intensity has been reported for A293-82 (VHH) VHH: EVQVVESGGGLVQPGGSLRLSCAASGNIFRIDTMVWYRQAPGKQRELVAGISRGGTTNYAHSVKGRFTISRDNAKNTMYLQMNSLKSEDTATYYCNAQAWDVGTIRYLEVWGQGTLVTVSA in the records?
Reply: 4320
